Examples of compounds with documented activation at 10 µM follow.
experimental-system: human mu receptor (Homo sapiens, UniProt P35372)
Construct: expressed in transfected cells; host or cells: CHO cells stably coexpressing the receptor and chimeric Gαqi5
Sequence (P35372 whole entry): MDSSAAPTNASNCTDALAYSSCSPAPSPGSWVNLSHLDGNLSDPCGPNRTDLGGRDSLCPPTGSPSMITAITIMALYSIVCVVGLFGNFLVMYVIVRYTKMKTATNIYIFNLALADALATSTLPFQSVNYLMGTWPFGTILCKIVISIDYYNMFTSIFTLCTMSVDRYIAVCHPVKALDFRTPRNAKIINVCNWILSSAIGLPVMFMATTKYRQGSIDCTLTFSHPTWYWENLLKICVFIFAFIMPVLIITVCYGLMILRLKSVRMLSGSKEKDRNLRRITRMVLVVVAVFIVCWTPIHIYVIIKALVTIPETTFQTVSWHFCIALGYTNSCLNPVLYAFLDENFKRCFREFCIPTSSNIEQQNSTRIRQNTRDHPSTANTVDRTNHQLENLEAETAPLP
experiment-notes: Calcium mobilization, mu opioid receptor
Format: cell-based
condition-description: read-out: mu effect at 10 μM (crc incomplete), Table 2 series; 10 μM; percent over the baseline fluorescence; mean ± SEM; SEM
Where a SMILES comes first, the peptide text is derived from it. [ ]: non-standard residue; d: D form. Phe(4-NO2) = N[C@@H](Cc1ccc([N+](=O)[O-])cc1)C(=O)O; Phe(4-F) = N[C@@H](Cc1ccc(F)cc1)C(=O)O

{"compound": "COc1ccc(C[C@H](NC(=O)[C@H](Cc2ccccc2)NC(=O)CNC(=O)CNC(=O)[C@@H](N)Cc2ccc(O)cc2)C(=O)NCC(=O)N[C@@H](C)C(=O)N[C@@H](CCCNC(=N)N)C(=O)N[C@@H](CCCCN)C(=O)N[C@@H](CO)C(=O)N[C@@H](C)C(=O)N[C@@H](CCCNC(=N)N)C(=O)N[C@@H](CCCCN)C(N)=O)cc1 [Compound 20, [Tyr^1,p(OCH3)Phe^5]N/OFQ(1-13)-NH2] (H-YGGFY(Me)GARKSARK-NH2)", "activation at 10 µM": "221%"}
{"compound": "C[C@H](NC(=O)CNC(=O)[C@H](Cc1ccc([N+](=O)[O-])cc1)NC(=O)[C@H](Cc1ccccc1)NC(=O)CNC(=O)CNC(=O)[C@@H](N)Cc1ccc(O)cc1)C(=O)N[C@@H](CCCNC(=N)N)C(=O)N[C@@H](CCCCN)C(=O)N[C@@H](CO)C(=O)N[C@@H](C)C(=O)N[C@@H](CCCNC(=N)N)C(=O)N[C@@H](CCCCN)C(N)=O [Compound 22, [Tyr^1,(pNO2)Phe^5]N/OFQ(1-13)-NH2] (H-YGGF[Phe(4-NO2)]GARKSARK-NH2)", "activation at 10 µM": "192%"}

Please look at the following compound next.
[Q] I am curious: what activation at 10 µM value has been reported for C[C@H](NC(=O)CNC(=O)[C@H](Cc1ccc(F)cc1)NC(=O)[C@H](Cc1ccccc1)NC(=O)CNC(=O)CNC(=O)[C@@H](N)Cc1ccc(O)cc1)C(=O)N[C@@H](CCCNC(=N)N)C(=O)N[C@@H](CCCCN)C(=O)N[C@@H](CO)C(=O)N[C@@H](C)C(=O)N[C@@H](CCCNC(=N)N)C(=O)N[C@@H](CCCCN)C(N)=O [Compound 21, [Tyr^1,(pF)Phe^5]N/OFQ(1-13)-NH2] (H-YGGF[Phe(4-F)]GARKSARK-NH2) ?
[A] 256%

* * *

Examples of molecules with documented NOP pEC50 (CL95%) follow.
experimental-system: human NOP receptor (Homo sapiens, UniProt P41146)
Construct: expressed in transfected cells; host or cells: CHO cells stably coexpressing the receptor and chimeric Gαqi5
Sequence (P41146 whole entry): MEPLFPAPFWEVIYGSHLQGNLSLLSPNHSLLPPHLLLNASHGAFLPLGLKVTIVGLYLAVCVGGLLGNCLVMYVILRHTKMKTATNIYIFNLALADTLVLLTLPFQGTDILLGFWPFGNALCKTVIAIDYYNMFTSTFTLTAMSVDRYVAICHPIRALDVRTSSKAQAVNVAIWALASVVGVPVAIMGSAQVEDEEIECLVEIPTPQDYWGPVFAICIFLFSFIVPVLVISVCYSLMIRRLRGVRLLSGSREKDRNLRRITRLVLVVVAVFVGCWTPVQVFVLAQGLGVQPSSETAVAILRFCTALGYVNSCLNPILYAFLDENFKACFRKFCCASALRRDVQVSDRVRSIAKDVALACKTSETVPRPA
experiment-notes: Calcium mobilization, NOP receptor
Type: cell-based
condition-description: Table 1 series; CHO cells coexpressing human NOP and Gαqi5, Fluo-4 AM, FlexStation II, 37 °C; mean of at least three experiments in duplicate; CL95% in brackets
Where a SMILES comes first, the peptide text is derived from it. [ ]: non-standard residue; d: D form. Nva = CCC[C@H](N)C(=O)O; Abu = CC[C@H](N)C(=O)O

{"molecule": "CCC[C@H](NC(=O)[C@H](Cc1ccccc1)NC(=O)CNC(=O)CNC(=O)[C@@H](N)Cc1ccc(O)cc1)C(=O)NCC(=O)N[C@@H](C)C(=O)N[C@@H](CCCNC(=N)N)C(=O)N[C@@H](CCCCN)C(=O)N[C@@H](CO)C(=O)N[C@@H](C)C(=O)N[C@@H](CCCNC(=N)N)C(=O)N[C@@H](CCCCN)C(N)=O [Compound 13, [Tyr^1,Nva^5]N/OFQ(1-13)-NH2] (H-YGGF[Nva]GARKSARK-NH2)", "parameter": "NOP pEC50 (CL95%)", "experimental-result": "8.43 (7.55–9.31)"}

Please look at the following molecule next.
[Q] I am curious: what NOP pEC50 (CL95%) value has been reported for CC[C@H](NC(=O)[C@H](Cc1ccccc1)NC(=O)CNC(=O)CNC(=O)[C@@H](N)Cc1ccc(O)cc1)C(=O)NCC(=O)N[C@@H](C)C(=O)N[C@@H](CCCNC(=N)N)C(=O)N[C@@H](CCCCN)C(=O)N[C@@H](CO)C(=O)N[C@@H](C)C(=O)N[C@@H](CCCNC(=N)N)C(=O)N[C@@H](CCCCN)C(N)=O [Compound 7, [Tyr^1,Abu^5]N/OFQ(1-13)-NH2] (H-YGGF[Abu]GARKSARK-NH2) ?
[A] 8.15 (7.61–8.69)

* * *

Examples of substances with documented activation at 10 µM follow.
experimental-system: human mu receptor (Homo sapiens)
Construct: expressed in transfected cells; host or cells: CHO cells stably coexpressing the receptor and chimeric Gαqi5
experiment-notes: Calcium mobilization, mu opioid receptor
Assay type: cell-based
condition-description: read-out: mu effect at 10 μM (crc incomplete), Table 1 series; 10 μM; percent over the baseline fluorescence; mean ± SEM; SEM
Where no end group is shown, it is not given here.
Just so you know, I need the unit written after the number.

As a guide, the following entries are already answered.
{"substance": "YGGFK(Ac)GARKSARK-NH2 [Compound 6, [Tyr^1,Lys(Ac)^5]N/OFQ(1-13)-NH2]", "activation at 10 µM": "161%"}
{"substance": "YGGFVGARKSARK-NH2 [Compound 5, [Tyr^1,Val^5]N/OFQ(1-13)-NH2]", "activation at 10 µM": "254%"}
{"substance": "YGGFTGARKSARK-NH2 [Compound 3, [Tyr^1]N/OFQ(1-13)-NH2, reference compound]", "activation at 10 µM": "197%"}
{"substance": "YGGFKGARKSARK-NH2 [Compound 8, [Tyr^1,Lys^5]N/OFQ(1-13)-NH2]", "activation at 10 µM": "113%"}

Please look at the following substance next.
[Q] I am curious: what activation at 10 µM value has been reported for YGGFNGARKSARK-NH2 [Compound 4, [Tyr^1,Asn^5]N/OFQ(1-13)-NH2] ?
[A] 209%

* * *

experimental-system: human NOP receptor (Homo sapiens, UniProt P41146)
Construct: expressed in transfected cells; host or cells: CHO cells stably coexpressing the receptor and chimeric Gαqi5
experiment-notes: Calcium mobilization, NOP receptor
Assay type: cell-based
condition-description: read-out: NOP Emax ± S.E.M., Table 2 series; percent over the baseline fluorescence; mean ± SEM of at least three experiments in duplicate; SEM
Where no end group is shown, it is not given here.
parameter: Emax (%)
Your answer should be a plain number; it is taken to be in %.

As a guide, the following entries are already answered.
{"substance": "YGGFWGARKSARK-NH2 [Compound 17, [Tyr^1,Trp^5]N/OFQ(1-13)-NH2]", "experimental-result": 288}
{"substance": "YGGFFGARKSARK-NH2 [Compound 15, [Tyr^1,Phe^5]N/OFQ(1-13)-NH2]", "experimental-result": 242}
{"substance": "YGGFHGARKSARK-NH2 [Compound 16, [Tyr^1,His^5]N/OFQ(1-13)-NH2]", "experimental-result": 249}

Please look at the following substance next.
[Q] I am curious: what Emax value has been reported for YGGFTGARKSARK-NH2 [Compound 3, [Tyr^1]N/OFQ(1-13)-NH2, reference compound] ?
[A] 266

* * *

experimental-system: human mu receptor (Homo sapiens, UniProt P35372)
Construct: expressed in transfected cells; host or cells: CHO cells stably coexpressing the receptor and chimeric Gαqi5
experiment-notes: Calcium mobilization, mu opioid receptor
Assay type: cell-based
Where no end group is shown, it is not given here.
parameter: EC50 (µM)
Your answer should be a plain number; it is taken to be in µM.

[Q] I am curious: what EC50 value has been reported for YGGFTGARKSARK-NH2 [Compound 3, [Tyr^1]N/OFQ(1-13)-NH2, reference compound] ?
[A] 1.58

* * *

experimental-system: human mu receptor (Homo sapiens)
Construct: expressed in transfected cells; host or cells: CHO cells stably coexpressing the receptor and chimeric Gαqi5
experiment-notes: Calcium mobilization, mu opioid receptor
Assay type: cell-based
condition-description: read-out: mu Emax ± S.E.M., Table 2 series; percent over the baseline fluorescence; mean ± SEM of at least three experiments in duplicate; SEM
Where a SMILES comes first, the peptide text is derived from it. [ ]: non-standard residue; d: D form. Dip = N[C@H](C(=O)O)C(c1ccccc1)c1ccccc1; Phe(4-NH2) = Nc1ccc(C[C@H](N)C(=O)O)cc1; 1Nal = N[C@@H](Cc1cccc2ccccc12)C(=O)O; Dmt = Cc1cc(O)cc(C)c1C[C@H](N)C(=O)O; Phg = N[C@H](C(=O)O)c1ccccc1
parameter: Emax
Just so you know, I need the unit written after the number.

[Q] I am curious: what Emax value has been reported for C[C@H](NC(=O)CNC(=O)[C@@H](NC(=O)[C@H](Cc1ccccc1)NC(=O)CNC(=O)CNC(=O)[C@@H](N)Cc1ccc(O)cc1)c1ccccc1)C(=O)N[C@@H](CCCNC(=N)N)C(=O)N[C@@H](CCCCN)C(=O)N[C@@H](CO)C(=O)N[C@@H](C)C(=O)N[C@@H](CCCNC(=N)N)C(=O)N[C@@H](CCCCN)C(N)=O [Compound 19, [Tyr^1,Phg^5]N/OFQ(1-13)-NH2] (H-YGGF[Phg]GARKSARK-NH2) ?
[A] 287%

[Q] I am curious: what Emax value has been reported for C[C@H](NC(=O)CNC(=O)[C@H](Cc1ccc(N)cc1)NC(=O)[C@H](Cc1ccccc1)NC(=O)CNC(=O)CNC(=O)[C@@H](N)Cc1ccc(O)cc1)C(=O)N[C@@H](CCCNC(=N)N)C(=O)N[C@@H](CCCCN)C(=O)N[C@@H](CO)C(=O)N[C@@H](C)C(=O)N[C@@H](CCCNC(=N)N)C(=O)N[C@@H](CCCCN)C(N)=O [Compound 27, [Tyr^1,(pNH2)Phe^5]N/OFQ(1-13)-NH2] (H-YGGF[Phe(4-NH2)]GARKSARK-NH2) ?
[A] 329%

[Q] I am curious: what Emax value has been reported for Cc1cc(O)cc(C)c1C[C@H](NC(=O)[C@H](Cc1ccccc1)NC(=O)CNC(=O)CNC(=O)[C@@H](N)Cc1ccc(O)cc1)C(=O)NCC(=O)N[C@@H](C)C(=O)N[C@@H](CCCNC(=N)N)C(=O)N[C@@H](CCCCN)C(=O)N[C@@H](CO)C(=O)N[C@@H](C)C(=O)N[C@@H](CCCNC(=N)N)C(=O)N[C@@H](CCCCN)C(N)=O [Compound 28, [Tyr^1,Dmt^5]N/OFQ(1-13)-NH2] (H-YGGF[Dmt]GARKSARK-NH2) ?
[A] 301%

[Q] I am curious: what Emax value has been reported for C[C@H](NC(=O)CNC(=O)[C@H](Cc1cccc2ccccc12)NC(=O)[C@H](Cc1ccccc1)NC(=O)CNC(=O)CNC(=O)[C@@H](N)Cc1ccc(O)cc1)C(=O)N[C@@H](CCCNC(=N)N)C(=O)N[C@@H](CCCCN)C(=O)N[C@@H](CO)C(=O)N[C@@H](C)C(=O)N[C@@H](CCCNC(=N)N)C(=O)N[C@@H](CCCCN)C(N)=O [Compound 25, [Tyr^1,1Nal^5]N/OFQ(1-13)-NH2] (H-YGGF[1Nal]GARKSARK-NH2) ?
[A] 319%

[Q] I am curious: what Emax value has been reported for C[C@H](NC(=O)CNC(=O)[C@@H](NC(=O)[C@H](Cc1ccccc1)NC(=O)CNC(=O)CNC(=O)[C@@H](N)Cc1ccc(O)cc1)C(c1ccccc1)c1ccccc1)C(=O)N[C@@H](CCCNC(=N)N)C(=O)N[C@@H](CCCCN)C(=O)N[C@@H](CO)C(=O)N[C@@H](C)C(=O)N[C@@H](CCCNC(=N)N)C(=O)N[C@@H](CCCCN)C(N)=O [Compound 23, [Tyr^1,Dip^5]N/OFQ(1-13)-NH2] (H-YGGF[Dip]GARKSARK-NH2) ?
[A] 331%

[Q] I am curious: what Emax value has been reported for C[C@@H](NC(=O)[C@@H](N)Cc1ccc(O)cc1)C(=O)N[C@@H](Cc1ccccc1)C(=O)NCC(=O)N[C@@H](Cc1ccc(O)cc1)C(=O)N1CCC[C@H]1C(=O)N[C@@H](CO)C(N)=O [Compound 2, dermorphin, reference compound] ?
[A] 306%

Just for reference, paper PMC8279409 is where these values come from.
